measured on: serotonin transporter (SERT) (Rattus norvegicus)
Construct: synaptosomes for uptake and release
Sequence (P31652 whole entry): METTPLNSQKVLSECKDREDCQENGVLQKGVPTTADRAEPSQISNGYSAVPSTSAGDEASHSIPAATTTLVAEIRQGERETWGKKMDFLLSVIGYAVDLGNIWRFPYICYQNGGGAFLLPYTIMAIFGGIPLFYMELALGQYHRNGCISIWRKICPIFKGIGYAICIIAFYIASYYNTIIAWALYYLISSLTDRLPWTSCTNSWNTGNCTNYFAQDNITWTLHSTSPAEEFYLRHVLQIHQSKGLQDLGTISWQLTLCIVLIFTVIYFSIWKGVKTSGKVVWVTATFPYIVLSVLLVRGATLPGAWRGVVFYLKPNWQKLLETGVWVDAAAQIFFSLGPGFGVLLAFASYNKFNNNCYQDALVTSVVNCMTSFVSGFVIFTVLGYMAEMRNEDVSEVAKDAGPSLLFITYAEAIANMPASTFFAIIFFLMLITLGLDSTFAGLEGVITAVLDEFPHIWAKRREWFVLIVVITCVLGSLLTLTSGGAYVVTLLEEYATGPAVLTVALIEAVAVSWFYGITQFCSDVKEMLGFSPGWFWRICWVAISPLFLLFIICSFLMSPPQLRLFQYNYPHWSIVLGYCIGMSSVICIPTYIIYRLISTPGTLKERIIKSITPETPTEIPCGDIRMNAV
test method notes: Competitive radioligand binding, [3H]citalopram, rat brain lysates
Ki values by entry
Write it as a number; the unit µM goes unstated.

Exercise: Find the measured Ki: item CNC(C)C(=O)c1ccc2c(c1)OCO2 (centres unmarked) , target or system serotonin transporter (SERT) (Rattus norvegicus).
Key: 4.15

Let us examine a further case.
Exercise: Find the measured Ki: item CNC(C)Cc1ccc2c(c1)OCO2 (racemic) , target or system serotonin transporter (SERT) (Rattus norvegicus).
Key: 2.62

* * *

measured on: dopamine transporter (DAT) (Rattus norvegicus, UniProt P23977)
Construct: from tissue; synaptosomes for uptake and release
Sequence (P23977 whole entry): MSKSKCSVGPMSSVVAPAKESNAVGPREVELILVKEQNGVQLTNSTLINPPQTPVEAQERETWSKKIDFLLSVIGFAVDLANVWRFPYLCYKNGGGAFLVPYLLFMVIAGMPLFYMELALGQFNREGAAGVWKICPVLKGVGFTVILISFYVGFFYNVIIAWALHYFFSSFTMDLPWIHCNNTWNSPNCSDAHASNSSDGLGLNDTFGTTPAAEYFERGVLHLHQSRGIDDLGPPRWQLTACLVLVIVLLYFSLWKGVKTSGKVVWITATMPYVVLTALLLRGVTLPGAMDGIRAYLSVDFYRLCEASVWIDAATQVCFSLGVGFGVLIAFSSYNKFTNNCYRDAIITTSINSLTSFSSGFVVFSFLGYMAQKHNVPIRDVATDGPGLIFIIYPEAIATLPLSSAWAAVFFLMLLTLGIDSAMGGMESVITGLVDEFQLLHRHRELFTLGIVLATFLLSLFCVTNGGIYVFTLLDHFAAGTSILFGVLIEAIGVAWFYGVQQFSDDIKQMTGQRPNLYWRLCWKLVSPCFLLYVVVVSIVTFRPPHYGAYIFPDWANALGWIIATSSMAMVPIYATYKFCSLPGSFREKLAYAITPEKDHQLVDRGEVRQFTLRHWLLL
test method notes: Competitive radioligand binding, [3H]WIN35428, rat brain lysates
Ki values by entry
Write it as a number; the unit µM goes unstated.

Exercise: Find the measured Ki: item CNC(C)C(=O)c1ccc2c(c1)OCO2 (centres unmarked) , target or system dopamine transporter (DAT) (Rattus norvegicus, UniProt P23977).
Key: 5.73

Let us examine a further case.
Exercise: Find the measured Ki: item CNC(C)Cc1ccc2c(c1)OCO2 (racemic) , target or system dopamine transporter (DAT) (Rattus norvegicus, UniProt P23977).
Key: 5.11
